# Test system: panel of 255 wild-type kinases (Homo sapiens)
# Sequence (P05771 whole entry): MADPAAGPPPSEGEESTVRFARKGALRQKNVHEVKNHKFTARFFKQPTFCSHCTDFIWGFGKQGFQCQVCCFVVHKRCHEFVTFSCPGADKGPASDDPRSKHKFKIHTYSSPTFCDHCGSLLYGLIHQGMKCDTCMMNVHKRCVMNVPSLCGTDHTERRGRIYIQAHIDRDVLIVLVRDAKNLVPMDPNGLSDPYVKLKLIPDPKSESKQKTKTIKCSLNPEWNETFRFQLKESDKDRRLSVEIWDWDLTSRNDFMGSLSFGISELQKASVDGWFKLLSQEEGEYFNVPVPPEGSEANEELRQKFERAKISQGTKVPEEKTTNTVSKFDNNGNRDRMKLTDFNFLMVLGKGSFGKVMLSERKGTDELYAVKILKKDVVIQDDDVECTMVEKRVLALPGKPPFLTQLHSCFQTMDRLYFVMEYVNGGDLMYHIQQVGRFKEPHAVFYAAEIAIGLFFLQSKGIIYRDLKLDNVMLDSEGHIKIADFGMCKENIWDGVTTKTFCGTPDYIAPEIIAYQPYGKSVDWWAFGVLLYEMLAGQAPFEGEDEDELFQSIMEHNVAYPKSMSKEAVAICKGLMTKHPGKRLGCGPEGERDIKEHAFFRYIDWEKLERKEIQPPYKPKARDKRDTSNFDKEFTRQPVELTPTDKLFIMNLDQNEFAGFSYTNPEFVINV
# Assay notes: Kinase panel profiling at 1 µmol/L (MSA or IMAP), percentage inhibition
# Format: biochemical
# Experimental context: kinase PKCβ1; 1 µmol/L single concentration; read-out: %-inhibition at 1 µmol/L, PKCβ1
Hi there, I'd appreciate the recorded inhibition at 1 µM for every entry that follows.
Give bare numbers, in %.

# Item smiles, Value unit, Result number
measured = [
    ("CN1CCN(c2ccc(C(=O)Nc3n[nH]c4ccc(Cc5cc(F)cc(F)c5)cc34)c(NC3CCOCC3)c2)CC1", "%", 12),
    ("CO[C@]1(C(=O)N[C@@H](C)c2ccc(-n3cc(F)cn3)nc2)CC[C@H](c2nc(C)cc(Nc3cc(C)[nH]n3)n2)CC1", "%", 2.58),
    ("Cc1cc(Nc2ncnc3ccc(NC4=NC(C)(C)CO4)cc23)ccc1Oc1ccn2ncnc2c1", "%", 0.869),
    ("CCN1CCN(c2ccc(Nc3cc(N(C)C(=O)Nc4c(Cl)c(OC)cc(OC)c4Cl)ncn3)cc2)CC1", "%", 5),
    ("Cn1cnc2c(F)c(Nc3ccc(Br)cc3F)c(C(=O)NOCCO)cc21", "%", -3.39),
]

Hello, I would appreciate it if you could give inhibition at 1 µM for each entry below.
1. C[C@H](Nc1ncnc2nc[nH]c12)c1cc2cccc(Cl)c2c(=O)n1-c1ccccc1
2. C=CC(=O)N1CCC([C@@H]2CCNc3c(C(N)=O)c(-c4ccc(Oc5ccccc5)cc4)nn32)CC1
3. COc1cc2ncnc(Nc3ccc(F)c(Cl)c3)c2cc1NC(=O)/C=C/CN1CCCCC1

Result ::
1. 5
2. 0.363
3. 3.74
